Data origin, for the record: PubChem BioAssay AID2060513

- Test system: 299254-011-R-J1-PDC complex spheroids viability;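 note: spheroids exposed to the agents for seven days before readout; percent viability relative to DMSO vehicle control wells = 100%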
- assay name: Anticancer human tumor 299254-011-R-J1-PDC patient-derived melanoma cell line growth inhibition [GQUAD]
- condition info: second compound 10 µM; first compound 0.00316 µM; active compounds read low
Reported viability, T/C is given for each of the following molecules.
Use % as the unit, but write only the number.

Below are worked cases with known answers.
>>> numeric_value("CC[C@@]1(O)C(=O)OCc2c1cc1n(c2=O)Cc2cc3c(CN(C)C)c(O)ccc3nc2-1 + CN(C)c1ccc(Nc2c3ccc(NC(=O)CCN4CCCC4)cc3nc3cc(NC(=O)CCN4CCCC4)ccc23)cc1")
89.3
>>> numeric_value("Cn1ncnc1[C@H]1c2n[nH]c(=O)c3cc(F)cc(c23)N[C@@H]1c1ccc(F)cc1 + Cc1[nH]c2ccc(F)cc2c1-c1nc2c3cccnc3c3ncccc3c2[nH]1")
111
>>> numeric_value("Cc1[nH]c2ccccc2c1CCNCc1ccc(/C=C/C(=O)NO)cc1 + CN(C)c1ccc(Nc2c3ccc(NC(=O)CCN4CCCC4)cc3nc3cc(NC(=O)CCN4CCCC4)ccc23)cc1")
121
>>> numeric_value("CC[C@@]1(O)C(=O)OCc2c1cc1n(c2=O)Cc2cc3c(CN(C)C)c(O)ccc3nc2-1 + Cc1[nH]c2ccc(F)cc2c1-c1nc2c3cccnc3c3ncccc3c2[nH]1")
97.8
>>> numeric_value("CCc1c2c(nc3ccc(O)cc13)-c1cc3c(c(=O)n1C2)COC(=O)[C@]3(O)CC + CN(C)c1ccc(Nc2c3ccc(NC(=O)CCN4CCCC4)cc3nc3cc(NC(=O)CCN4CCCC4)ccc23)cc1")
129
>>> numeric_value("CCc1c2c(nc3ccc(O)cc13)-c1cc3c(c(=O)n1C2)COC(=O)[C@]3(O)CC + Cc1[nH]c2ccc(F)cc2c1-c1nc2c3cccnc3c3ncccc3c2[nH]1")
94.4
>>> numeric_value("CC[C@@]1(O)C(=O)OCc2c1cc1n(c2=O)Cc2cc3c(CN(C)C)c(O)ccc3nc2-1 + Cc1cnc(CNC(=O)c2c(=O)c3ccc(N4CCCN(C)CC4)nc3n3c2sc2ccccc23)cn1")
16.5
>>> numeric_value("CCc1c2c(nc3ccc(O)cc13)-c1cc3c(c(=O)n1C2)COC(=O)[C@]3(O)CC + Cc1cnc(CNC(=O)c2c(=O)c3ccc(N4CCCN(C)CC4)nc3n3c2sc2ccccc23)cn1")
20.1
>>> numeric_value("Cc1[nH]c2ccccc2c1CCNCc1ccc(/C=C/C(=O)NO)cc1 + Cc1cnc(CNC(=O)c2c(=O)c3ccc(N4CCCN(C)CC4)nc3n3c2sc2ccccc23)cn1")
8.63
>>> numeric_value("Cn1ncnc1[C@H]1c2n[nH]c(=O)c3cc(F)cc(c23)N[C@@H]1c1ccc(F)cc1 + Cc1cnc(CNC(=O)c2c(=O)c3ccc(N4CCCN(C)CC4)nc3n3c2sc2ccccc23)cn1")
60.6

// viability, T/C (299254-011-R-J1-PDC complex spheroids viability) for Cn1ncnc1[C@H]1c2n[nH]c(=O)c3cc(F)cc(c23)N[C@@H]1c1ccc(F)cc1 + CN(C)c1ccc(Nc2c3ccc(NC(=O)CCN4CCCC4)cc3nc3cc(NC(=O)CCN4CCCC4)ccc23)cc1 = 85.2

// viability, T/C (299254-011-R-J1-PDC complex spheroids viability) for Cc1[nH]c2ccccc2c1CCNCc1ccc(/C=C/C(=O)NO)cc1 + Cc1[nH]c2ccc(F)cc2c1-c1nc2c3cccnc3c3ncccc3c2[nH]1 = 105
